# Test system: A704
# procedure-details: Cell panel screen (CellTiter-Glo)
# Type: cell-based, human
# condition-summary: A704 (Kidney), 20 micromolar, 72 hrs

compound | system-tested | quantity-unit | Percent Inhibition
COc1c(CC=C(C)C)c(O)c2c(=O)c3ccc(O)c(O)c3oc2c1CC=C(C)C [gl-9] | A704 | % | 88
CC(C)=CCC[C@@]1(C)C=Cc2c(O)c3c(c(CC=C(C)C)c2O1)O[C@]12C(=C[C@@H]4C[C@H]1C(C)(C)O[C@@]2(C/C=C(/C)C(=O)O)C4=O)C3=O [GB11] | A704 | % | 98
CC(C)=CCc1c(O)cc(O)c2c1O[C@]13C(=C[C@@H]4C[C@H]1C(C)(C)O[C@@]3(CC=C(C)C)C4=O)C2=O [GB35] | A704 | % | 99
COc1cc(O)c2c(=O)c3ccc(O)c(O)c3oc2c1CC=C(C)C [gl-17] | A704 | % | 42
COC(=O)C1OC(Oc2cc(O)c3c(c2)OC(c2ccc(O)c(O)c2)CC3=O)C(O)C(O)C1O (stereo not drawn) [gly-5] | A704 | % | -7
COc1ccc2c(=O)c3c(O)cc(O)cc3oc2c1OC [Go-14] | A704 | % | -13
CC(C)=CCc1c2c(c(O)c3c1O[C@]14C(=C[C@@H]5C[C@H]1C(C)(C)O[C@@]4(C/C=C(\C)CO)C5=O)C3=O)C=CC(C)(C)O2 [GB18] | A704 | % | 99
O=C1CC(c2ccc(O)c(O)c2)Oc2cc(OC3OC(C(=O)O)C(O)C(O)C3O)cc(O)c21 (stereo not drawn) [gly-2] | A704 | % | -14
CCOC(=O)C1OC(Oc2cc(O)c3c(c2)OC(c2ccc(O)c(O)c2)CC3=O)C(O)C(O)C1O (stereo not drawn) [gly-3] | A704 | % | -17
CC1(C)C=Cc2c(cc(O)c3c(=O)c4ccc(O)c(O)c4oc23)O1 [gl-18] | A704 | % | 66
CC(C)=CCc1c(O)cc2oc3c(c(=O)c2c1O)C(CC=C(C)C)(CC=C(C)C)C(=O)C(O)=C3 [bn-2, Allanxanthone C] | A704 | % | 4
COc1c(CC=C(C)C)cc2c(=O)c3c(O)cc(O)cc3oc2c1O [gl-16] | A704 | % | 9

###

# System: J82
# procedure-details: Cell panel screen (CellTiter-Glo)
# Assay type: cell-based, human
# condition-summary: Homo sapiens; J82 (Urinary bladder), 20 micromolar, 72 hrs; read-out: Percent Inhibition
measured-endpoint: inhibition at 20 µM (%)

compound | numeric-result
CC(C)=CCC[C@@]1(C)C=Cc2c(O)c3c(c(C/C=C(\C)CO)c2O1)O[C@]12C(=C[C@@H]4C[C@H]1C(C)(C)O[C@@]2(C/C=C(/C)C(=O)O)C4=O)C3=O [GB40, 35-hydroxyepigambogic acid] | 99
CC(C)=CCC/C(C)=C/Cc1c(O)c(CC=C(C)C)c2c(c1O)C(=O)C1=C[C@@H]3C[C@H]4C(C)(C)O[C@@](C/C=C(\C)C(=O)O)(C3=O)[C@@]14O2 | 99
CC(C)=CCc1c(O)cc2oc3c(CC=C(C)C)c(O)c(O)c(CC=C(C)C)c3c(=O)c2c1O | 98
CC(C)=CCC[C@@]1(C)C=Cc2c(O)c3c(c(CCC(C)(C)O)c2O1)O[C@]12C(=C[C@@H]4C[C@H]1C(C)(C)O[C@@]2(C/C=C(/C)C(=O)O)C4=O)C3=O [GB39, 33-hydroxyepigambogic acid] | 100
